Target: SARS-CoV-2 main protease (M^pro) (Severe acute respiratory syndrome coronavirus 2, UniProt P0DTD1)
Experiment: Rapid-Fire MS Biochemical Assay measuring Mpro activity (5 nM Mpro)
Conditions: Table 1B, Mpro inhibition, 5 μM substrate peptide, 120 min, read-out: Rapid-Fire Assay IC50
pIC50: −log10 of the molar value.
MEASUREMENT LABEL: pIC50

Consider the worked cases shown below.
1. COc1ccc(C(F)(F)F)nc1N1C[C@H](C#N)N(c2cncc3ccccc23)C1=O (single isomer, unassigned) [Compound 47a]    6.70 to 7.70
2. N#C[C@H]1CN(c2ccc(F)nc2)C(=O)N1c1cncc2ccccc12 (single isomer, unassigned) [Compound 55a]    6.70 to 7.70
3. COc1cc(Cl)cnc1N1C[C@H](C#N)N(c2cncc3ccccc23)C1=O (single isomer, unassigned) [Compound 58a]    6.70 to 7.70
4. N#C[C@@H]1CN(C2CC3(CC3)C2)C(=O)N1c1cncc2ccccc12 (single isomer, unassigned) [Compound 125b]    < 6.00
5. Cc1cc(N2C[C@@H](C#N)N(c3cncc4ccccc34)C2=O)cc(C)n1 (single isomer, unassigned) [Compound 102b]    6.00 to 6.70

Query block: Given the entry N#CC1CN(c2ccc(Cl)cc2)C(=O)N1c1cncc2ccccc12 (stereo not shown) , report its measured pIC50.
Result block: > 7.70

Query block: Need pIC50 of COc1cc(C(F)(F)F)ncc1N1C[C@H](C#N)N(c2cncc3ccccc23)C1=O (single isomer, unassigned) [Compound 107a] , thanks.
Result block: 6.70 to 7.70

Query block: I'd like to know its pIC50. The molecule in question is N#C[C@H]1CN(c2ccc(C(F)F)cc2)C(=O)N1c1cncc2ccccc12 (single isomer, unassigned) [Compound 108a]
Result block: > 7.70

Query block: May I ask what pIC50 has been recorded for N#C[C@H]1CN(C2CN(C3CC3)C2)C(=O)N1c1cncc2ccccc12 (single isomer, unassigned) [Compound 136a] ?
Result block: > 7.70

Query block: Could you share which pIC50 value was measured for N#C[C@H]1CN(c2ccc(C(F)F)cn2)C(=O)N1c1cncc2ccccc12 (single isomer, unassigned) [Compound 78a] ?
Result block: > 7.70
